Kindly state viability at 28.5 h, 10 µM for each of the entries shown.
- assay_remarks: in vitro
- condition_label: human, hela cells, % viability
Give bare numbers, in %.

>>> df
                                   compound                  value_kind  units_label  numeric_readout
0  Cc1noc(C)c1CN1CCN(CC(CC(=O)Nc2ccc(F)cc2)C(=O)O)CC1 (stereo not drawn) [CBK286821]  viability at 28.5 h, 10 µM            %             90.5

Report viability at 28.5 h, 10 µM for each item below.
1. O=C1N(c2cccc(Cl)c2)Cc2nc(=O)[nH]n21 [CBK288430]
2. c1ccc(-c2nc3ccccc3nc2N2CCNCC2)cc1 [CBK269574C]
3. COc1cc(S(=O)(=O)NCCCn2ccnc2)ccc1Cl [CBK269186]
4. CCc1cc(CN(CC)CC)n[nH]1 [CBK018654]
5. Cn1ccc(CN2CCOC(c3nc(C(C)(C)C)n[nH]3)C2)cc1=O (stereo not drawn) [CBK304495]
6. O=C(CC1Sc2ccccc2NC1=O)Nc1ccccc1[N+](=O)[O-] (stereo not drawn) [CBK264014]
7. COC(=O)c1c(C)[nH]c(C(=O)CSc2ncnc3scc(-c4ccccc4)c23)c1C [CBK265918]
8. CC1(c2ccccc2)CC(C)(C)N(C(=O)CSc2nc3ccccc3o2)c2ccccc21 (stereo not drawn) [CBK262466]

Result string:
1: 85.1; 2: 85; 3: 89.1; 4: 114; 5: 84.5; 6: 94.8; 7: 95.5; 8: 104

###

Assignment: determine reported viability at 28.5 h, 10 µM for the given compounds.
- assay_remarks: in vitro
- condition_label: human, hela cells, % viability
Give bare numbers, in %.

Each compound below has a recorded value; state its viability at 28.5 h, 10 µM.
1. COc1ccc(-c2ccc(Nc3cccc(N(C)C)c3)nc2)cc1OC [CBK037606]
2. CCC1=NN(c2ccccc2)C(=O)C(CC(=O)Nc2ccccc2)c2cc(OC)c(OC)cc21 (centres unmarked) [CBK260938]
3. O=C(c1cccc2ncccc12)N1CC[C@@H](c2ccccc2)[C@H](O)C1 [CBK283716]
4. CC(C)Nc1nc(-c2cccnc2)nc2ccccc12 [CBK073006]
5. Cc1cccc(C2(O)CCN(C(=O)c3ccc4nc(C)[nH]c4c3)CC2)c1 [CBK283299]

Result string:
1. 90
2. 89
3. 84.3
4. 91.1
5. 102

# batch: return viability at 28.5 h, 10 µM for each of the 2 compounds below
1. CN(C)CC(Oc1ccccc1)C(=O)c1ccccc1 (centres unmarked) [CBK011935C]
2. COc1ccc(Cn2nc3nnc(-c4ccc(F)cc4)c(-c4ccc(F)cc4)n3c2=O)cc1 [CBK286183]

Result string:
101
107

Report viability at 28.5 h, 10 µM for each item below.
1. CCOC(=O)C1CCCCN1S(=O)(=O)c1ccc(Br)s1 (centres unmarked) [CBK096110]
2. O=C(C1CN(Cc2nc3ccsc3c(=O)[nH]2)c2ccccc2O1)N1CCOCC1 (centres unmarked) [CBK295189]

Result string:
102
109

Quick request: viability at 28.5 h, 10 µM for each listed item, please.
1. CCOc1cccc(-c2cncc(NCc3cccs3)n2)c1 [CBK066034]
2. O=C(Nc1ccc(C(F)(F)F)cc1)N(Cc1ccc2ccccc2c1)CC1CCNCC1 [CBK056720]
3. Fc1cccc(Nc2nc(C3CCNCC3)c3ccccn23)c1 [CBK281522]

Result string:
104
88.9
107

I would be grateful if you could provide viability at 28.5 h, 10 µM for each of the following entries.
1. COc1cc(C(=O)N2CCN(c3cc(C(C)C)ccc(CO)c3=O)CC2)cc(OC)c1OC [CBK007673]
2. COc1ccc(OC)c2sc(NC(=O)c3ccc(Br)s3)nc12 [CBK287400]

Result string:
1. 91
2. 93.7

Consider the following items and state reported viability at 28.5 h, 10 µM for each.
1. CCOc1cccc(-c2ccc(Nc3ccc(Oc4ccccc4)cc3)nc2)c1 [CBK037679]
2. CC1=NN(c2ccc(S(N)(=O)=O)cc2)C(=O)/C1=C\c1ccc(-c2cccc(C(=O)O)c2)o1 [CBK263483]
3. c1ccc2c(N3CCCCC3)cnnc2c1 [CBK066897]

Result string:
94.4
98
99.2

Kindly give each listed record's viability at 28.5 h, 10 µM.
1. CNC(=O)c1sc2ccccc2c1C1CCN(Cc2nc3ccccc3n2C(C)C)C1 (centres unmarked) [CBK285929]
2. CCOC(=O)c1c[nH]c2nc(COc3ccccc3)nn2c1=O [CBK268088]

Result string:
98.4
107

State the recorded viability at 28.5 h, 10 µM for every item in the following list.
1. C[C@]12CN(CC3CC=CCC3)C[C@H]1C(=O)Nc1ccccc1C(=O)N2 (some centres unmarked) [CBK284738]
2. CN(C)c1ccc(-c2nccnc2NS(=O)(=O)c2ccc3ccccc3c2)cc1 [CBK050794]
3. CCOC(=O)c1sc(NC(=O)c2ccccc2Br)nc1C [CBK067745]
4. COCc1ccc(-c2nccnc2NS(=O)(=O)c2c(C)noc2C)cc1 [CBK049656]
5. CCOC(=O)c1sc(NC(=O)CCNC(=O)c2ccccc2C(=O)O)c(C#N)c1C [CBK295152]

Result string:
1: 96.6; 2: 93.4; 3: 90.2; 4: 122; 5: 96.1

Batch of 2 compounds: report viability at 28.5 h, 10 µM for each.
1. O=C(O)CCCCc1nn(-c2ccc(Cl)c(Cl)c2)c2c1CCC2 [CBK012529]
2. COc1c(C)cc(-c2[nH]c(C)nc2C)cc1C [CBK306941]

Result string:
1. 97.5
2. 86.6

###

- assay_remarks: in vitro
- condition_label: human, hela cells, % viability
value_kind: viability at 28.5 h, 10 µM (%)
Answers are plain numbers, in %.

>>> df
                                   compound                  value_kind  numeric_readout
0  Cc1ccc(/C=C/C(=O)O)cc1S(=O)(=O)N(CCO)CCO  viability at 28.5 h, 10 µM               99

Go through the list and state viability at 28.5 h, 10 µM for each entry.
1. Cn1c(=O)c2ncn(CC(=O)Nc3cccc(C(=O)O)c3)c2n(C)c1=O
2. COC(=O)c1csc2nc(NCCCO)sc12
3. Cc1ncc(CN2CCCC(O)(c3ccc(F)cc3)CC2)n1C (centres unmarked)
4. Cc1ccc(CN2C(=O)CC(Sc3ncccc3C(=O)O)C2=O)cc1 (centres unmarked)
5. Cc1cccc(CN2CC[C@@H]3[C@H](C2)[C@@H](c2ccsc2)CN3C(=O)c2ccccc2F)c1

Result string:
1. 98.4
2. 91.4
3. 89.6
4. 91.2
5. 109

Hey, can you go through the list below and give me viability at 28.5 h, 10 µM for every item?
1. O=C(O)CCCCCNc1ncnc2sc3c(c12)CCCC3
2. CCC(C)NC(=O)C1=CCN(S(C)(=O)=O)C1 (centres unmarked)

Result string:
102
101

Okay, here is my list. What is viability at 28.5 h, 10 µM for each of these?
1. O=C(Nc1ccccc1C(=O)NCCN1CCOCC1)c1cccs1
2. O=C(NC(c1ccc(Cl)cc1)c1cccnc1)C1CCN(C(=O)c2ccco2)CC1 (centres unmarked)
3. CC(C)OC(=O)C(NC(=O)OC(C)(C)C)c1ccccc1 (centres unmarked)
4. CCOc1ccc(Cl)cc1CN(C)C(=O)NCc1nccn1C(C)C
5. O=C(NCc1cccc(C(F)(F)F)c1)c1cnc(-c2ccccc2)c(-c2ccco2)c1

Result string:
94.4
92.4
90.4
101
103

For each entry beneath this line, provide reported viability at 28.5 h, 10 µM.
1. O=C(Cn1ncc2ccccc2c1=O)N1CCC(c2ccccc2)C1 (centres unmarked)
2. CCN(CC)c1c(C)nc2ccc(C(=O)NCCc3ccccn3)cn12
3. Cc1cc(COC(=O)N2CCCC(C(F)(F)F)C2)cc(C)n1 (centres unmarked)

Result string:
1: 90.7; 2: 94.9; 3: 92.8

Query string: Give the value of viability at 28.5 h, 10 µM reported for the following: CCc1cc(CNC(=O)C2CN(Cc3ccc(Cl)cc3)C2)on1
Result string: 97.8

###

Assign viability at 28.5 h, 0.037 µM to each entry below.
- assay_remarks: in vitro
- Set-up: Viability of infected HeLa host cells, resazurin conversion, bulk resorufin fluorescence relative to DMSO
- condition_label: human, hela cells; bulk resorufin, mean of 3
Give bare numbers, in %.

Example compounds with recorded viability at 28.5 h, 0.037 µM:
>>> print(df.to_string())
                                   compound  units_label  numeric_readout
0  CC(=O)N1CCc2sccc2C1c1ccccc1NCc1ccoc1 (stereo not drawn) [c28e]            %             90.6
1         O=C1Oc2nc3ccccc3cc2CN1C1CC1 [c1e]            %             93.9
2  O=C(CSc1nnc(-c2cccnc2)o1)c1ccccc1 [c35e]            %               87

Please go through the list and note viability at 28.5 h, 0.037 µM for each compound.
1. CCCN(CCC)CCc1cccc2c1CCN2C(=O)c1cc2ccccc2s1 [c15e]
2. CCCCc1ccc(NC(=N)Nc2nc(C)cc(C)n2)cc1 [c33e]
3. O=[N+]([O-])c1ccc(-n2cnc3ccccc32)c([N+](=O)[O-])c1 [c41e]
4. O=C(Nc1ccc(F)c(F)c1)NC1CCC2CN(CCOc3ccccc3)CC2C1 (stereo not drawn) [c9e]
5. CC(Cc1nc(-c2nccn2C)cs1)n1cc(Cl)cn1 (stereo not drawn) [c14e]
6. CCCCc1ccc(Nc2csc(N)n2)cc1 [c11e]

Result string:
[85.5, 93.1, 104, 89, 103, 92.8]
